Data origin, for the record: patent US11655235B2

Target: DPP4 (Homo sapiens, UniProt P27487)
Sequence (P27487 whole entry): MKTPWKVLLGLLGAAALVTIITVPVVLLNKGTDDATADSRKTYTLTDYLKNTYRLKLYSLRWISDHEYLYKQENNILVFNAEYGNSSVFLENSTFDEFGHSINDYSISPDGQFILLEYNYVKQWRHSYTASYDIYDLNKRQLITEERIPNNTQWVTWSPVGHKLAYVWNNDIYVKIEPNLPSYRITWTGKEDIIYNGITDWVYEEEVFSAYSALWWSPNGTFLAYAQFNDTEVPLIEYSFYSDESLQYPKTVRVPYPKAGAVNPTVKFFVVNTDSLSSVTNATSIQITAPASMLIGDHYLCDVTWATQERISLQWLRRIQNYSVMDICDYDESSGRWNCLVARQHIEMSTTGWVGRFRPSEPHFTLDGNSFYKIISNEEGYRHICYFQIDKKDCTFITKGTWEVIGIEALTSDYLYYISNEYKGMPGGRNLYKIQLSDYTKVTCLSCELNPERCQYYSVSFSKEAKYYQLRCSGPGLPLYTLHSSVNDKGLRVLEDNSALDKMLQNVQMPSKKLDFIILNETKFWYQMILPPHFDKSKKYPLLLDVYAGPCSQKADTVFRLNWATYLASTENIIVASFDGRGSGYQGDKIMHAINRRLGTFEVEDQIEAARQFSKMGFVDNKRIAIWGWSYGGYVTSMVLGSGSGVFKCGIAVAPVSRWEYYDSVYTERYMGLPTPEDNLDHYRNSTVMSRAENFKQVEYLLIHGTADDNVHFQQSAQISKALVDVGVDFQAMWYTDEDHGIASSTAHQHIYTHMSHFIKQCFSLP
Assay: DPP4 inhibition, fluorogenic substrate H-Gly-Pro-AMC
Format: biochemical
Parameters: purchased R&D Systems
Settings: recombinant human DPP4
pIC50: −log10 of the molar value.
Binary classification by pIC50, with 5 as an inclusive lower bound for satisfied; all other cases are not satisfied.

Consider the worked cases shown below.
sample smiles: N#C[C@@H]1C[C@H](F)CN1C(=O)CN1CC[C@@H](Nc2ccnc3ccc(F)cc23)C1
discrete label: satisfied
//
sample smiles: N#C[C@@H]1C[C@H](F)CN1C(=O)CN1CC[C@@H](Nc2cc(C(F)(F)F)cc3ncccc23)C1
discrete label: satisfied

Hi, just wondering whether "N#C[C@@H]1C[C@H](F)CN1C(=O)CN1CCC(Nc2cc(F)c3ncccc3c2)CC1" shows pIC50 of 5 or higher.
satisfied

Hi, just wondering whether "N#C[C@@H]1CCCN1C(=O)CN1CC[C@@H](Nc2ccnc3ccc(Cl)cc23)C1" shows pIC50 of 5 or higher.
not satisfied

Hi, just wondering whether "N#Cc1cnc2cccc(N[C@H]3CCN(CC(=O)N4C[C@@H](F)C[C@H]4C#N)C3)c2c1" shows pIC50 of 5 or higher.
satisfied

Hi, just wondering whether "CN(C(=O)c1ccc(NC2CCN(CC(=O)N3CCC[C@H]3C#N)CC2)c2cccnc12)c1ccccc1" shows pIC50 of 5 or higher.
not satisfied

Hi, just wondering whether "CC(=O)Nc1ccc(N[C@H]2CCN(CC(=O)N3C[C@@H](F)C[C@H]3C#N)C2)c2cccnc12" shows pIC50 of 5 or higher.
satisfied

====

Molecular target: recombinant human DPP8 (Homo sapiens, UniProt Q6V1X1)
Construct: purchased PBS Bioscience
Sequence (Q6V1X1 whole entry): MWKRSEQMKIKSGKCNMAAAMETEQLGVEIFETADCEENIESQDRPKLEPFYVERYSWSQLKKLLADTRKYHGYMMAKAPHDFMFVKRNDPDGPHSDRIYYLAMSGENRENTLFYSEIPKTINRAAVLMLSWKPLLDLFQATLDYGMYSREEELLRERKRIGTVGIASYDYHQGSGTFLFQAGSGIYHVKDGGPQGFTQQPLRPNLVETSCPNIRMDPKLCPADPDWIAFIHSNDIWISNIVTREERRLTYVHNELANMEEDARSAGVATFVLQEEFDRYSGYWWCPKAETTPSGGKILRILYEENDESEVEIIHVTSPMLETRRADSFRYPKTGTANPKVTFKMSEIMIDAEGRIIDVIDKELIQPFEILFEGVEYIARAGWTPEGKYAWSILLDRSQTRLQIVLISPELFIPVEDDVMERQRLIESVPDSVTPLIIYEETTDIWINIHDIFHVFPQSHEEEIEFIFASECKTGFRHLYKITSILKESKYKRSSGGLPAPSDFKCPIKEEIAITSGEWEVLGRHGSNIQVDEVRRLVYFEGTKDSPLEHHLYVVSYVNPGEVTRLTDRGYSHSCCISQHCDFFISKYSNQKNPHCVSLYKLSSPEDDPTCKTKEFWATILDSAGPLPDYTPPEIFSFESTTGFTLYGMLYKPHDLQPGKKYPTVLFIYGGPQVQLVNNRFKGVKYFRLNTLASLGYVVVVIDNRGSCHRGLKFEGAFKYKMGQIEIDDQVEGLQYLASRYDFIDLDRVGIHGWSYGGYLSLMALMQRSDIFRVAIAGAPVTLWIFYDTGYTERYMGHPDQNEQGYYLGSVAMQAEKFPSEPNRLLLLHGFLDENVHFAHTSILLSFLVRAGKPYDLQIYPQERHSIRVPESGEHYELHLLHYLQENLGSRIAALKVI
Experiment: DPP8 inhibition, fluorogenic substrate Z-Ala-Pro-AMC
Format: biochemical
Conditions: recombinant human DPP8
# Lookup of reported IC50 keyed by entry
Respond with the bare value in µM.

sample smiles: N#C[C@@H]1C[C@H](F)CN1C(=O)CN1CCC(Oc2cncc3ccccc23)CC1
numeric result: 8.59
//
sample smiles: CN(c1ccc2ccncc2c1)C1CCN(CC(=O)N2C[C@@H](F)C[C@H]2C#N)CC1
numeric result: 3.82

GET /value?item= "N#C[C@@H]1C[C@H](F)CN1C(=O)CN1CC[C@@H](Nc2ccc3ncccc3c2)C1" &field=IC50 returns 6.28

====

Molecular target: recombinant human DPP7 (Homo sapiens, UniProt Q9UHL4)
Construct: purchased R&D Systems
Assay: DPP7 inhibition, fluorogenic substrate Lys-Pro-AMC
Format: biochemical
Conditions: recombinant human DPP7
# Lookup of reported IC50 keyed by entry
Respond with the bare value in nM.

Look over these answered cases.
molecule: COc1cc(N[C@@H]2CCN(CC(=O)N3C[C@@H](F)C[C@H]3C#N)C2)c2cccnc2c1 [Example 177]
IC50 [nM]: 46.9
//
molecule: Cc1ccc2nccc(OC3CCN(CC(=O)N4C[C@@H](F)C[C@H]4C#N)CC3)c2c1 [Example 410]
IC50 [nM]: 4730
//
molecule: N#C[C@@H]1C[C@H](F)CN1C(=O)CN1CCC(Nc2cc(C(F)(F)F)c3ncccc3c2)CC1 [Example 377]
IC50 [nM]: 178
//
molecule: COc1cnc2cccc(NC3CCN(CC(=O)N4C[C@@H](F)C[C@H]4C#N)CC3)c2c1 [Example 348]
IC50 [nM]: 612
//
molecule: CCOc1ccc(N[C@H]2CCN(CC(=O)N3CCC[C@H]3C#N)C2)c2cccnc12 [Example 274]
IC50 [nM]: 960
//
molecule: Cc1cc(OC2CCN(CC(=O)N3C[C@@H](F)C[C@H]3C#N)CC2)c2ccccc2n1 [Example 436]
IC50 [nM]: 8500
//
molecule: N#C[C@@H]1C[C@H](F)CN1C(=O)CN1CC[C@@H](Nc2ccc3nc(C(F)(F)F)ccc3c2)C1 [Example 210]
IC50 [nM]: 281
//
molecule: N#C[C@@H]1C[C@H](F)CN1C(=O)CN1CCC(Nc2cccc3cnccc23)CC1 [Example 340]
IC50 [nM]: 523
//
molecule: CC(=O)Nc1ccc(NC2CCN(CC(=O)N3C[C@@H](F)C[C@H]3C#N)CC2)c2cccnc12 [Example 409]
IC50 [nM]: 62.6
//
molecule: N#C[C@@H]1CCCN1C(=O)CN1CCC(Nc2ccc(C(=O)Nc3ccccn3)c3ncccc23)CC1 [Example 399]
IC50 [nM]: 1010

// next item, IC50 requested
The value of IC50 recorded for N#C[C@@H]1CCCN1C(=O)CN1CC[C@H](Nc2ccc(C(=O)Nc3ccccn3)c3ncccc23)C1 [Example 293] when tested on recombinant human DPP7 (Homo sapiens, UniProt Q9UHL4) reads 122
